test: gradient 5% acetonitrile 3 min, to 50% in 2 min, to 85% in 15 min, held 3 min, 100 µL/min; conditions: column: Zorbax Extend-C18 2.1 x 50 mm; eluents: water / acetonitrile, 0.1% formic acid
Readout name: RP-LC retention time (s)

> print(dat)
                                    compound  numeric.result
 1  COc1ccc(OC)c(NC(=O)NC(C)C(=O)N2CCc3ccccc32)c1 (stereo not drawn)             859
 2  COc1cccc(NC(=O)Nc2cc(-c3cn4cccnc4n3)ccc2OC)c1             654
 3  CCCN1C(=O)COc2ccc(-c3noc(CNC(=O)c4ccccc4)n3)cc21             870
 4  O=C(CN1C(=O)CCCc2cc(S(=O)(=O)N3CCCC3)ccc21)NC1CCCCCCC1             915
 5  C=CCNC(=O)c1cnn(-c2ccc(-c3nc(C(C)C)no3)cn2)c1C             903
 6  CCCNC(=O)C1CCN(c2ccc(SCC(=O)Nc3cc(Cl)ccc3OC)nn2)CC1             730
 7  O=C(NCCCc1ccccc1)C1CCN(C(=O)c2ncn3c2COC(c2ccccc2)C3)CC1 (stereo not drawn)             821
 8  Cc1cc2nn(CC(=O)NCc3ccccc3)c(=O)n2c(Nc2ccc(C)c(C)c2)n1            1060
 9  Cc1nnsc1C(=O)N1CCC(CNC(=O)Cn2c(=O)oc3ccccc32)CC1             641
10  COCCN(Cc1ccc(C)cc1)Cc1cc(=O)n2ccc(C)cc2n1             656
11  COc1ccccc1NC(=O)N1CCCC1c1nc(-c2ccccc2C)no1 (stereo not drawn)            1080
12  Cc1ccc(S(=O)(=O)N2CC[C@H](c3n[nH]c(C)n3)[C@H](N(C)C)C2)c(C)c1             623
13  O=C(c1ccccc1F)N1CCC(CNS(=O)(=O)c2ccc(C(F)(F)F)cc2)CC1             847
14  O=c1ccc(S(=O)(=O)N2CCOCC2)cn1Cc1cccc(Cl)c1             809
15  Cc1nn(-c2ccc3nnc(C)n3n2)c(C)c1CCC(=O)NCCc1c[nH]c2ccccc12             726
16  CCCN1CCN(c2cc(C(=O)O)c3cc(NS(=O)(=O)c4ccc(CC)cc4)ccc3n2)CC1             642
17  O=C(NCc1ccc(N2CCOCC2)cc1)c1cn2nc(Cl)ccc2n1             656
18  CCCc1nc(C(C)(C)O)c(C(=O)OCc2oc(=O)oc2C)n1Cc1ccc(-c2ccccc2-c2nn[nH]n2)cc1             832

###

experiment: gradient 5% acetonitrile 3 min, to 50% in 2 min, to 85% in 15 min, held 3 min, 100 µL/min; conditions: column: Zorbax Extend-C18 2.1 x 50 mm; eluents: water / acetonitrile, 0.1% formic acid
Readout name: RP-LC retention time (s)

> print(dat)
                                   compound  unit.of.measurement  numeric.result
1  Cn1c(N2CCCC(C(=O)Nc3ccc(F)cc3F)C2)cc(=O)n(C)c1=O (stereo not drawn)                    s             700
2  CCCNC(=O)C1CCCN(c2ccc(SCC(=O)Nc3ccc(CC)cc3)nn2)C1 (stereo not drawn)                    s             656
3  Cc1sc(NC(=O)c2cccs2)nc1-c1ccc2c(c1)NC(=O)CO2                    s             842
